assay_target: PKR(wt) (Homo sapiens, UniProt P30613)
Sequence (P30613 whole entry): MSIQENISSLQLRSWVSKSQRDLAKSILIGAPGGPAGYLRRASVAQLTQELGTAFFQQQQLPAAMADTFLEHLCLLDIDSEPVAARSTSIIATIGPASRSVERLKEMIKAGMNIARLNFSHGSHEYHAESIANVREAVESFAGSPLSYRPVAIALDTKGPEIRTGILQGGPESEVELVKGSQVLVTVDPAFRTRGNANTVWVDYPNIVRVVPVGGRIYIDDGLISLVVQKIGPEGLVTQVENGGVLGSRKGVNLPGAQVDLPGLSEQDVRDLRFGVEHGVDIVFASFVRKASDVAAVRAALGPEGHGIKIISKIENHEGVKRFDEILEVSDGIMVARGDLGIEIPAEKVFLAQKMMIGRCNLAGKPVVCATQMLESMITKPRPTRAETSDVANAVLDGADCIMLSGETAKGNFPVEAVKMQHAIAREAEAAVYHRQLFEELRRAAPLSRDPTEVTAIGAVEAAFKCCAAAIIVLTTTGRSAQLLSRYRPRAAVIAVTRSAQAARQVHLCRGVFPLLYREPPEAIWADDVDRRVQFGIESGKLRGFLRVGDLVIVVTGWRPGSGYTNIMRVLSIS
experiment_summary: Luminescence Biochemical Assay (Kinase Glo Plus), wild type PKR
reported_conditions: without FBP, 1.54 μM compound, read-out: AC50 LUM KGP woFBP % Fold@1.54 μM mean
Measured activation at 1.54 µM, listed per entry for reference.

- compound: "CN1CCOc2ccc(S(=O)(=O)N3CC4=C(CN(C(=O)[C@@H]5CCCO5)C4)C3)cc21"
  assay_target: "PKR(wt) (Homo sapiens, UniProt P30613)"
  readout_label: "activation at 1.54 µM"
  result: "75 to 250%"
- compound: "Cc1cc(COC(=O)N2CC3=C(C2)CN(S(=O)(=O)c2ccc(OC(F)F)cc2)C3)no1"
  assay_target: "PKR(wt) (Homo sapiens, UniProt P30613)"
  readout_label: "activation at 1.54 µM"
  result: "250 to 50000%"
- compound: "O=C([C@@H](O)c1ccc2c(c1)CNCC2)N1CC2=C(C1)CN(S(=O)(=O)c1ccc(OC(F)F)cc1)C2 (single isomer, unassigned)"
  assay_target: "PKR(wt) (Homo sapiens, UniProt P30613)"
  readout_label: "activation at 1.54 µM"
  result: "75 to 250%"

What is its activation at 1.54 µM for PKR(wt) (Homo sapiens, UniProt P30613)? Entry: O=C(C(O)c1ccc(F)c(F)c1)N1CC2=C(C1)CN(S(=O)(=O)c1ccc(OC(F)F)cc1)C2 (centres unmarked)
75 to 250%

COc1ccc(S(=O)(=O)N2CC3=C(CN(C(=O)[C@H](O)c4ccccc4)C3)C2)cc1F ?
75 to 250%

CC(C)Oc1ccc(CNC(=O)N2CC3=C(C2)CN(S(=O)(=O)c2ccc4ncsc4c2)C3)cc1 ?
75 to 250%

O=C([C@@H](O)c1ccc2c(c1)NCCO2)N1CC2=C(C1)CN(S(=O)(=O)c1ccc(OC(F)F)cc1)C2 (single isomer, unassigned) ?
250 to 50000%

CN1CCOc2ccc(S(=O)(=O)N3CC4=C(CN(C(=O)[C@H]5CCCO5)C4)C3)cc21 ?
75 to 250%

---

assay_target: PKR(wt) (Homo sapiens, UniProt P30613)
experiment_summary: Luminescence Biochemical Assay (Kinase Glo Plus), wild type PKR
reported_conditions: without FBP, read-out: AC50 LUM KGP woFBP MAX % FOLD mean
readout_label: Emax

Solved entries (count: 4):
- molecule: "O=C([C@H](O)c1ccccc1)N1CC2=C(C1)CN(S(=O)(=O)c1ccc(Cl)cc1)C2"
  assay_target: "PKR(wt) (Homo sapiens, UniProt P30613)"
  readout_label: "Emax"
  result: "75 to 250%"
- molecule: "CC(=O)Nc1cc(S(=O)(=O)N2CC3=C(CN(C(=O)[C@H](O)c4ccccc4)C3)C2)ccc1F"
  assay_target: "PKR(wt) (Homo sapiens, UniProt P30613)"
  readout_label: "Emax"
  result: "75 to 250%"
- molecule: "O=C([C@H](O)c1ccccc1)N1CC2=C(C1)CN(S(=O)(=O)c1cccc(C(F)(F)F)n1)C2"
  assay_target: "PKR(wt) (Homo sapiens, UniProt P30613)"
  readout_label: "Emax"
  result: "75 to 250%"
- molecule: "O=C(NCC1CCCO1)N1CC2=C(C1)CN(S(=O)(=O)c1ccc3occc3c1)C2 (stereo not drawn)"
  assay_target: "PKR(wt) (Homo sapiens, UniProt P30613)"
  readout_label: "Emax"
  result: "75 to 250%"

What is its Emax for PKR(wt) (Homo sapiens, UniProt P30613)? Entry: O=C([C@H](O)c1ccc(F)cc1)N1CC2=C(C1)CN(S(=O)(=O)c1ccccn1)C2
250 to 500%

N#Cc1ccc(S(=O)(=O)N2CC3=C(CN(C(=O)[C@H](O)c4ccccc4)C3)C2)cc1 ?
75 to 250%

O=C([C@@H]1CCCO1)N1CC2=C(C1)CN(S(=O)(=O)c1ccccn1)C2 ?
75 to 250%

O=C(NCC1CCOC1)N1CC2=C(C1)CN(S(=O)(=O)c1ccc3occc3c1)C2 (stereo not drawn) ?
75 to 250%

O=C(NCc1ncco1)N1CC2=C(C1)CN(S(=O)(=O)c1ccc3ncsc3c1)C2 ?
250 to 500%

COc1ccccc1CNC(=O)N1CC2=C(C1)CN(S(=O)(=O)c1ccc(OC(F)F)cc1)C2 ?
250 to 500%

COc1ccc(CNC(=O)N2CC3=C(C2)CN(S(=O)(=O)c2ccc4ncsc4c2)C3)cc1 ?
250 to 500%

O=C(NCc1ccccc1F)N1CC2=C(C1)CN(S(=O)(=O)c1cccnc1)C2 ?
250 to 500%

O=C([C@H](O)c1ccccc1)N1CC2=C(C1)CN(S(=O)(=O)c1cccc(OC(F)F)c1)C2 ?
75 to 250%

O=C([C@@H](O)c1ccccn1)N1CC2=C(C1)CN(S(=O)(=O)c1ccc(OC(F)F)cc1)C2 (single isomer, unassigned) ?
250 to 500%

NS(=O)(=O)c1ccc(S(=O)(=O)N2CC3=C(CN(C(=O)[C@H](O)c4ccccc4)C3)C2)cc1 ?
75 to 250%

Every entry's value here was drawn from patent US12122778B2.
